Molecular target: SMYD3 (Homo sapiens (Human), UniProt Q9H7B4)
Sequence (Q9H7B4 whole entry): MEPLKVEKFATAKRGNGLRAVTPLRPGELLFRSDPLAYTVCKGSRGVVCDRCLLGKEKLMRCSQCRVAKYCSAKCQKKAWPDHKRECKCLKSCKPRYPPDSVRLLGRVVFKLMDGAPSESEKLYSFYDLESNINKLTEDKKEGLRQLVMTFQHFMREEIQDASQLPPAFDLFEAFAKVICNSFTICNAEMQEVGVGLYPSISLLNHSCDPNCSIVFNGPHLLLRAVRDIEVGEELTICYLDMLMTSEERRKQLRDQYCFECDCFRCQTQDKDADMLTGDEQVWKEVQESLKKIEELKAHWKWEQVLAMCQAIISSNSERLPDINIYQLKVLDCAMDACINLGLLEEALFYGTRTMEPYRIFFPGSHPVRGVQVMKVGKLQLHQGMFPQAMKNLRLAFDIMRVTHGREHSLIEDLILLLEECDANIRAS
Assay: SMYD3 cell assay (Trimethyl-MEKK2 In-Cell Western in 293T/17 cells)
Format: cell-based
Details: read-out: SMYD3 Cell IC50*
pIC50: −log10 of the molar value.
Outcome: y for pIC50 of at least 6; n for anything lower.

>  <Smiles>
O=C(N[C@H]1C[C@H]2CC[C@@H](C1)N2S(=O)(=O)NC1CCNCC1)c1cc(C2CC2)on1

>  <Class assignment>
y

$$$$
>  <Smiles>
CN(CCC(F)(F)F)C1CCN(S(=O)(=O)N2[C@@H]3CC[C@H]2C[C@@H](NC(=O)c2cc(C4CC4)on2)C3)CC1

>  <Class assignment>
y

$$$$
>  <Smiles>
NCC1CCN(S(=O)(=O)N2[C@@H]3CC[C@H]2C[C@@H](NC(=O)c2cc(C4CC4)on2)C3)CC1

>  <Class assignment>
n

$$$$

Textbook exercise: given the entry CC(C)CN(C)C1CCN(S(=O)(=O)N2[C@@H]3CC[C@H]2C[C@@H](NC(=O)c2cc(C4CC4)on2)C3)CC1 , state whether its pIC50 is greater than or equal to 6.
y

Now the compound CN[C@H]1CC[C@@H](S(=O)(=O)N2[C@@H]3CC[C@H]2C[C@@H](NC(=O)c2cc(C4CC4)on2)C3)CC1
y

* * *

Give log10 IC50 for every item shown.
Target: SMYD3 (Homo sapiens (Human), UniProt Q9H7B4)
Assay: SMYD3 cell assay (Trimethyl-MEKK2 In-Cell Western in 293T/17 cells)
Format: cell-based
Conditions: average of n = 1 to n = 50; read-out: SMYD3 Cell IC50
A value of 2 here means IC50 of 100 in nM, since values are log10.

Here are 8 compounds. What values of log10 IC50 were reported for them?
1. CC(C)NCCCS(=O)(=O)N1CC[C@H](NC(=O)c2cc(C3CC3)on2)C[C@@H]1C [compound 633]
2. O=C(N[C@@H]1CCN(S(=O)(=O)CC2CCNCC2)[C@H](Cc2ccccc2)C1)c1cc(C2CC2)on1 [compound 744]
3. CN1CCN(S(=O)(=O)N2[C@@H]3CC[C@H]2C[C@@H](NC(=O)c2cc(C4CC4)on2)C3)CC1 [compound 641]
4. CC1CN(S(=O)(=O)N2[C@@H]3CC[C@H]2C[C@@H](NC(=O)c2cc(C4CC4)on2)C3)CC(C)N1 (stereo partly drawn) [compound 692]
5. CC(C)CNCCCS(=O)(=O)N1CC[C@H](NC(=O)c2cc(C3CC3)on2)C[C@@H]1C [compound 640]
6. CN1CCN(S(=O)(=O)N2[C@@H]3CC[C@H]2C[C@@H](NC(=O)c2cc(C4CC4)on2)C3)CC1(C)C [compound 656]
7. CC1CN(S(=O)(=O)N2CC[C@H](NC(=O)c3cc(C4CC4)on3)C[C@@H]2C)CCN1C (stereo partly drawn) [compound 699]
8. C[C@H]1C[C@@H](NC(=O)c2cc(C3CC3)on2)CCN1S(=O)(=O)NCCN [compound 650]

1: 2.46; 2: 3.37; 3: 2.27; 4: 2.80; 5: 2.68; 6: 2.64; 7: 2.82; 8: 3.67

* * *

Biological target: SMYD3 (Homo sapiens (Human), UniProt Q9H7B4)
Assay: SMYD3 biochemical assay (SPA, 3H-SAM methylation of MEKK2 protein substrate)
Conditions: read-out: SMYD3 Biochem IC50 (μM)*
Reported endpoint: IC50

>  <Compound>
C[C@H]1CN(C(=O)CCCN)CC[C@@H]1NC(=O)c1cc(C2CC2)on1

>  <Study system>
SMYD3 (Homo sapiens (Human), UniProt Q9H7B4)

>  <IC50>
6.91 µM

$$$$

Here are 3 compounds. What values of IC50 were reported for them?
1. C[C@H]1C[C@@H](NC(=O)c2cc(C3CC3)on2)CCN1S(=O)(=O)N1CCCC1
2. CNc1ccc(S(=O)(=O)N2CC[C@@H](NC(=O)c3cc(C4CC4)on3)C[C@H]2C)cn1
3. C[C@H]1CC(NC(=O)c2cc(C3CC3)on2)CCN1C(=O)[C@H]1C[C@H](N)C1 (some centres unmarked)

1. 0.654 µM
2. > 10 µM
3. 2.72 µM

* * *

Give pIC50 for every item shown.
Target: SMYD3 (Homo sapiens (Human))
Assay: SMYD3 biochemical assay (SPA, 3H-SAM methylation of MEKK2 protein substrate)
Conditions: Table 2A; read-out: SMYD3 Biochem IC50
One number for each entry, as −log10 of the molar value.

Use these answered entries as a reference point.
>  <Molecule>
O=C(N[C@H]1C[C@H]2CC[C@@H](C1)N2S(=O)(=O)NC1CC2(CNC2)C1)c1cc(C2CC2)on1

>  <Reported endpoint>
pIC50

>  <Experimental value>
7.92

$$$$
>  <Molecule>
C[C@H]1C[C@@H](NC(=O)c2cc(C3CC3)on2)CCN1S(=O)(=O)CCCNCC1CCCCC1

>  <Reported endpoint>
pIC50

>  <Experimental value>
7.68

$$$$

Here are 6 molecules. What values of pIC50 were reported for them?
1. O=C(N[C@H]1C[C@H]2CC[C@@H](C1)N2S(=O)(=O)CC1CCN(CCC(F)(F)F)CC1)c1cc(C2CC2)on1
2. O=C(N[C@H]1C[C@H]2CC[C@@H](C1)N2S(=O)(=O)CC1CCN(CCO)CC1)c1cc(C2CC2)on1
3. C[C@H]1C[C@@H](NC(=O)c2cc(C3CC3)on2)CCN1S(=O)(=O)N1CC2CCC(C1)N2C
4. CC(C)CN1CCC(CS(=O)(=O)N2CC[C@H](NC(=O)c3cc(C4CC4)on3)C[C@@H]2C)CC1
5. C[C@H]1C[C@@H](NC(=O)c2cc(C3CC3)on2)CCN1S(=O)(=O)N1CCC(NCc2ccccc2)CC1
6. CN(C)CCCS(=O)(=O)N1[C@@H]2CC[C@H]1C[C@@H](NC(=O)c1cc(C3CC3)on1)C2

[8.54, 9.05, 8.22, 8.38, 8.68, 7.93]

Here are 7 molecules. What values of pIC50 were reported for them?
1. C[C@H]1C[C@@H](NC(=O)c2cc(C3CC3)on2)CCN1S(=O)(=O)CC1CCN(CCc2ccccc2)CC1
2. CN1CCC(N(C)S(=O)(=O)N2[C@@H]3CC[C@H]2C[C@@H](NC(=O)c2cc(C4CC4)on2)C3)CC1
3. CN(C)CCN(C)CCS(=O)(=O)N1[C@@H]2CC[C@H]1C[C@@H](NC(=O)c1cc(C3CC3)on1)C2
4. COCCN1CCC(CS(=O)(=O)N2CC[C@@H](NC(=O)c3cc(C4CC4)on3)C[C@H]2C)CC1
5. C[C@H]1C[C@@H](NC(=O)c2cc(C3CC3)on2)CCN1S(=O)(=O)c1ccc(C(C)(C)N)cc1
6. O=C(N[C@H]1C[C@H]2CC[C@@H](C1)N2S(=O)(=O)CC1CCCNC1)c1cc(C2CC2)on1 (stereo partly shown)
7. CNCCN(C)CCS(=O)(=O)N1[C@@H]2CC[C@H]1C[C@@H](NC(=O)c1cc(C3CC3)on1)C2

9.05
7.75
7.83
7.98
8.85
8.64
7.63

* * *

Give pIC50 for every item shown.
Molecular target: SMYD3 (Homo sapiens (Human))
Test: SMYD3 biochemical assay (SPA, 3H-SAM methylation of MEKK2 protein substrate)
Conditions: read-out: SMYD3 Biochem IC50*
Give bare numbers, as −log10 of the molar value.

Use these answered entries as a reference point.
>  <Compound>
CCc1cc(C(=O)N[C@H]2CCN(S(=O)(=O)N3CCC(N)CC3)[C@@H](C)C2)no1 [compound 793]

>  <Study system>
SMYD3 (Homo sapiens (Human))

>  <Reported endpoint>
pIC50

>  <Experimental value>
8.73

$$$$
>  <Compound>
C[C@H]1C[C@@H](NC(=O)c2cc(C3CC3)on2)CCN1S(=O)(=O)CC1CCCC(N)C1 (stereo partly shown) [compound 827]

>  <Study system>
SMYD3 (Homo sapiens (Human))

>  <Reported endpoint>
pIC50

>  <Experimental value>
8.40

$$$$

Here are 4 compounds. What values of pIC50 were reported for them?
1. O=C(N[C@H]1C[C@H]2CC[C@@H](C1)N2S(=O)(=O)[C@H]1CC[C@@H](NCCN2CCOCC2)CC1)c1cc(C2CC2)on1 [compound 920]
2. CC(C)CN(C)C1CCN(S(=O)(=O)N2[C@@H]3CC[C@H]2C[C@@H](NC(=O)c2cc(C4CC4)on2)C3)CC1 [compound 860]
3. CCN(CC)C1CCN(S(=O)(=O)N2[C@@H]3CC[C@H]2C[C@@H](NC(=O)c2cc(C4CC4)on2)C3)CC1 [compound 889]
4. COCCN1C2CCC1CN(S(=O)(=O)N1[C@@H]3CC[C@H]1C[C@@H](NC(=O)c1cc(C4CC4)on1)C3)C2 [compound 955]

7.58
8.12
7.90
7.23

API: value(readout= pIC50, system= SMYD3 (Homo sapiens (Human)), query= CCc1cc(C(=O)N[C@H]2C[C@H]3CC[C@@H](C2)N3S(=O)(=O)N2CCC(N)CC2)no1 [compound 799] )
8.69
